System: S-adenosylmethionine synthetase
experiment: S-adenosylmethionine synthetase (MAT) activity in vitro in crude extracts, FIA-MS/MS
Type: biochemical, E. coli
settings: 10 mM methionine, 10 mM ATP, 37° C., 30 minutes
attribute_measured: MAT (S-adenosylmethionine synthetase activity) (mUI/mg prot)
Numbers only; they are read as mUI/mg prot.

## Input # lookup: MAT (S-adenosylmethionine synthetase activity) of MetK* G115S (protein, UniProt P0A817 2-384, looked up, variant G115S) S-adenosylmethionine synthase: AKHLFTSESVSEGHPDKIADQISDAVLDAILEQDPKARVACETYVKTGMVLVGGEITTSAWVDIEEITRNTVREIGYVHSDMGFDANSCAVLSAIGKQSPDINQGVDRADPLEQSAGDQGLMFGYATNETDVLMPAPITYAHRLVQRQAEVRKNGTLPWLRPDAKSQVTFQYDDGKIVGIDAVVLSTQHSEEIDQKSLQEAVMEEIIKPILPAEWLTSATKFFINPTGRFVIGGPMGDCGLTGRKIIVDTYGGMARHGGGAFSGKDPSKVDRSAAYAARYVAKNIVAAGLADRCEIQVSYAIGVAEPTSIMVETFGTEKVPSEQLTLLVREFFDLRPYGLIQMLDLLHPIYKETAAYGHFGREHFPWEKTDKAQLLRDAAGLK
## Output 0.4
